B1: TRIM55 (parent)
chain: YLPTRGGTTMASGGRFRCPSCRHE

Variants of: B1
Experiment: protein stability index of a GFP-peptide fusion (GPS, HEK-293T) (PSI 1-6); higher = more stable;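 further: lentivirally expressed fusions sorted by FACS into six bins by GFP to DsRed ratio, PSI derived from sequencing read proportions per bin multiplied by bin number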
Conditions: c terminus: a fixed tail appended
The threshold is inclusive: protein stability index of exactly 2 counts as 1; values below receive 0.

VARIANT_NOTATION | LABEL_CLASS
C21S | 1
E24Q | 1
T9R | 0
S12Y | 0
C18F | 1
T8S | 0
G7E | 0
R17C | 0
T8H | 1
R5D | 0
G13W | 0
G7R | 0
S20T | 1
E24I | 0
A11T | 1
R22D | 1
G7I | 0
C18V | 1
R22I | 1
T4P | 0
R5E | 1
L2H | 1
R15Y | 0
P19V | 0
G6N | 0
S12P | 1
A11R | 0
A11H | 0
R15E | 1
G14C | 1
F16A | 1
C18E | 1
E24P | 1
M10Y | 0
R15M | 0
L2W | 1
S20M | 0
Y1W | 1
C18M | 1
S12A | 0

Values compiled from the supplement of paper PMC10567573.
